target: Oxysterols receptor LXR-beta (Homo sapiens, UniProt P55055); assay: Agonist activity at LXRbeta by FRET assay; assay type: functional
Sequence (P55055 whole entry): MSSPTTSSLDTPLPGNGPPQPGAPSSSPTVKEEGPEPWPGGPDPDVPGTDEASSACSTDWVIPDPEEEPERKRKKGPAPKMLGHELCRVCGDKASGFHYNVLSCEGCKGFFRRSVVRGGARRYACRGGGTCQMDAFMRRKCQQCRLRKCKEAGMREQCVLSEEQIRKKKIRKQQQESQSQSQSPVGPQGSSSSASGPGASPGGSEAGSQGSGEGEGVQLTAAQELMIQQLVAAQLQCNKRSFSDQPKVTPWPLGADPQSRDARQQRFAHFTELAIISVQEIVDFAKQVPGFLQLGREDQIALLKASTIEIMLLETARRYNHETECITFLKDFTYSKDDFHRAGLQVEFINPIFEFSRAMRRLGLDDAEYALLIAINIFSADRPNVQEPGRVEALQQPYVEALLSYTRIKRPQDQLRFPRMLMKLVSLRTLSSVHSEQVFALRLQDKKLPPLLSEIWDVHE
observable: pEC50
Give bare numbers, as −log10 of the molar value.

Cc1cc(OCCCN(Cc2cccc(C(F)(F)F)c2Cl)CC(c2ccccc2)c2ccccc2)n2ncnc2n1 = 6.25
CS(=O)(=O)n1ccc2c(OCCCN(Cc3cccc(C(F)(F)F)c3Cl)CC(c3ccccc3)c3ccccc3)cccc21 = 8.15
COC(=O)Cc1c[nH]c2ccc(OCCCN(Cc3cccc(C(F)(F)F)c3Cl)CC(c3ccccc3)c3ccccc3)cc12 = 6.54
Cn1ccc2c(OCCCN(Cc3cccc(C(F)(F)F)c3Cl)CC(c3ccccc3)c3ccccc3)cccc21 = 7.92

Answer for every listed entry: what is its pEC50? The entries follow.
1. FC(F)(F)c1cccc(CN(CCCOc2n[nH]c3ccccc23)CC(c2ccccc2)c2ccccc2)c1Cl
2. COC(=O)c1cc(OCCCN(Cc2cccc(C(F)(F)F)c2Cl)CC(c2ccccc2)c2ccccc2)no1
3. FC(F)(F)c1cccc(CN(CCCOc2cccc3[nH]ccc23)CC(c2ccccc2)c2ccccc2)c1Cl
4. Cc1cc(OCCCN(Cc2cccc(C(F)(F)F)c2Cl)CC(c2ccccc2)c2ccccc2)n[nH]1

Result ::
[7.22, 7.59, 7.82, 7.82]
